Target: 26S proteasome non-ATPase regulatory subunit 10 (Homo sapiens) (UniProt O75832)
Sequence (whole entry): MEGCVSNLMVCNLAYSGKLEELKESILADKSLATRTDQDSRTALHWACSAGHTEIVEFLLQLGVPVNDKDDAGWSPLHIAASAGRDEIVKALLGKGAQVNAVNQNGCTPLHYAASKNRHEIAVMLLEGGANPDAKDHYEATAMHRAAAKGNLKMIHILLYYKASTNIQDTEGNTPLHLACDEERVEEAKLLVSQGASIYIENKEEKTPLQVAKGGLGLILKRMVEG
Experiment: Binding affinity to gankyrin (unknown origin) assessed as fold increase in change in melting temperature at 300 uM by thermal shift assay relative to control
Reported fold change (FC) is given for each of the following compounds.

Example entries and their recorded answers appear below.
INSERT INTO measurements (mol_smiles, target_of_assay, experimental_endpoint, recorded_value) VALUES
  ('COC(=O)c1ccc(-n2cc(CCCOS(=O)(=O)c3cccc(OC)c3)nn2)cc1', '26S proteasome non-ATPase regulatory subunit 10 (Homo sapiens) (UniProt O75832)', 'fold change (FC)', 1.9),
  ('COC(=O)c1ccc(-n2cc(CCCOS(=O)(=O)c3ccc(-c4ccccc4)cc3)nn2)cc1', '26S proteasome non-ATPase regulatory subunit 10 (Homo sapiens) (UniProt O75832)', 'fold change (FC)', 2.3),
  ('COC(=O)c1ccc(-n2cc(CCCOS(=O)(=O)c3ccc(I)cc3)nn2)cc1', '26S proteasome non-ATPase regulatory subunit 10 (Homo sapiens) (UniProt O75832)', 'fold change (FC)', 1.7),
  ('COC(=O)c1ccc(-n2cc(CCCOS(=O)(=O)c3cccc(F)c3)nn2)cc1', '26S proteasome non-ATPase regulatory subunit 10 (Homo sapiens) (UniProt O75832)', 'fold change (FC)', 1.4);

Now turn to the next compound.
Input COC(=O)c1ccc(-n2cc(CCCOS(=O)(=O)c3ccccc3C)nn2)cc1 . Output fold change (FC): 2

====

# Lookup of reported pIC50 keyed by entry
tested on: HepG2; experiment: Antiproliferative activity against human HepG2 cells assessed as reduction in cell viability incubated for 72 hrs by MTT assay; type: functional, cell-based; settings: HepG2, 72 h
Here pIC50 is given on a logarithmic scale as minus log10 of the concentration in mol/L.

Please review the following examples before continuing.
INSERT INTO assay_data (mol_smiles, experimental_endpoint, recorded_value) VALUES
  ('COC(=O)c1ccc(-n2cc(CCCOS(=O)(=O)c3cccc(OC)c3)nn2)cc1', 'pIC50', 4.43),
  ('COC(=O)c1ccc(-n2cc(CCCOS(=O)(=O)c3ccc(-c4ccccc4)cc3)nn2)cc1', 'pIC50', 4.34);

Now, please, on to the next molecule.
# lookup: COC(=O)c1ccc(-n2cc(CCCOS(=O)(=O)c3ccc(I)cc3)nn2)cc1 on HepG2, pIC50 = 4.76

====

biological target: 26S proteasome non-ATPase regulatory subunit 10 (Homo sapiens); assay: Binding affinity to gankyrin (unknown origin) assessed as fold increase in change in melting temperature at 300 uM by thermal shift assay relative to control
Active and inactive are the calls of the source. No cut-off for these calls is given here.
experimental.endpoint: Activity

INSERT INTO measurements (mol_smiles, target_of_assay, recorded_value) VALUES
  ('COC(=O)c1ccc(-n2cc(CCCOS(=O)(=O)c3ccc(C(=O)OC)cc3)nn2)cc1', '26S proteasome non-ATPase regulatory subunit 10 (Homo sapiens)', 'Active'),
  ('COC(=O)c1ccc(-n2cc(CCCOS(=O)(=O)c3ccc(C#N)cc3)nn2)cc1', '26S proteasome non-ATPase regulatory subunit 10 (Homo sapiens)', 'Active');

Cited source: ChEMBL document CHEMBL4610049
